Data origin, for the record: paper PMC2110899

MEASUREMENT TARGET: GXM-binding murine monoclonal antibody 18B7 (mouse)
Sequence (heavy, as listed by the source, chain 1 of 2): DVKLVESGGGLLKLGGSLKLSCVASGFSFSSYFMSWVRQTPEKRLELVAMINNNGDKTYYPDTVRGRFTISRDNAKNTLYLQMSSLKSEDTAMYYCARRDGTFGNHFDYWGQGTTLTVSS
Sequence (light, as listed by the source, chain 2 of 2): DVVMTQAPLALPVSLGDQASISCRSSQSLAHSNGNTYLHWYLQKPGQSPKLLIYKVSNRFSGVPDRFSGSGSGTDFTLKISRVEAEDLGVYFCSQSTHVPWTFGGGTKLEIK
TEST PROTOCOL: SPR; BIAcore 3000; antibody immobilised on a CM5 chip through primary amino groups; peptide P1 1.56 µM to 200 µM at 100 µl/min in 0.2 mM K2HPO4/KH2PO4 pH 6.5, 150 mM KCl, 0.01% Tween 20; 25°C; global fit to a two-state model, equilibrium constants calculated from the rate constants
Ends that are not written are not given here.

{"BINDER": "SPNQHTPPWMLK (also: biotinylated, position not given here) [Peptide mimetic of GXM P1]", "Kd": "2.33 mM"}
